- Tested on: ACHN renal
- assay_name: NCI tumour cell line growth inhibition, 48 h; in the data active = GI50 below about 0.43 µM; inactive = the rest
Valid outcomes are listed here; reply with one: class 1 for active, class 0 for inactive

Which outcome was assigned to CC1=Nc2c(ccc3c2C(=O)c2ccccc2C3=O)NC(c2ccncc2)C1 (stereo unspecified) in this test?
class 0

# outcome recorded in this test, key = O=C(N/N=C/c1ccc(Cl)cc1Cl)c1ccccc1Nc1cccc(C(F)(F)F)c1
class 0

I would be grateful if you could indicate the recorded call for COC(=O)c1c(O)ccc2[nH]c(C)c(C#N)c12 .
class 0

Dear colleague, could you share the recorded outcome for O=C(Nc1cc(-c2ccccc2)[nH]n1)c1ccc(Cl)cc1 when you have a moment?
class 0

Status in this test for C=CCOc1c(Br)cc(Br)cc1Br ?
class 0

Name the outcome recorded for CCCNCc1cc(C)cc2c1nc(N1CCNCC1)n2Cc1cc(C)c(F)c(C)c1 in the assay.
class 0

How was CNC(=O)c1cn(C[C@H](F)CCc2ccc(NC(=O)Cc3cc(OC4CC(F)(F)C4)cc(C)n3)nn2)nn1 classified in this test?
class 0

Outcome logged for COc1ccc(NC2=C(Br)C(=O)C(C)=C(C)C2=O)cc1 in this assay:
class 0

Fill in: this test's call for CCCS(=O)(=O)c1nc(NC2CC2)cc(-c2ccc3c(ccn3C3CC(C)(C)NC(C)(C)C3)c2)n1 is ___
class 0

Dear all, I need the recorded test outcome for CCN(Cc1c(F)cccc1F)c1ccc(CO)c(Cl)c1 , thank you.
class 0

Any idea what this test logged for CNC(=O)c1cc(Oc2ccc(NC(=O)Nc3ccc(Cl)c(OC(F)(F)F)c3)c(F)c2)ccn1 ?
class 0

What is the recorded call for this molecule in the test? CNc1nc(NC2CCCC2)nc(Sc2ccc(OC)cc2)n1
class 0

Query: recorded result category for CCCCCCNc1nc(NCCCCCC)c2[nH]c(NCCCCCC)nc2n1 in this test
class 0

Check the results log: what was the call for c1cc[c]([Sn]([S]c2cccc3cccnc23)([c]2ccccc2)[c]2ccccc2)cc1 ?
class 1

Look up the recorded call for CCCSc1cc(Cl)nc(N)n1 in this test.
class 0

How did this test come out for Cc1sc(C)c(-c2ccc(CO)o2)c1-c1ccc(CO)o1 ?
class 0
